# reported shrunken log2 fold change; entries follow
# System: Escherichia coli TOP10
# experimental-details: shrunken log2 fold change of peptide-encoding DNA abundance (4.5 h post-induction vs induction); higher = less antimicrobial activity (less host growth inhibition)
# recorded-conditions: time post-induction: 4.5 h; library: site-saturation at positions 5, 18, 19, 20
measure: shrunken log2 fold change

> print(dat)
                biosequence    value
 1  RRIRYRPPRLPRPRPRPSYVPRP    -1.29
 2  RRIRTRPPRLPRPRPRPHPLPRP   -0.503
 3  RRIRYRPPRLPRPRPRPQIDPRP   0.0753
 4  RRIRARPPRLPRPRPRPRQSPRP    0.233
 5  RRIRWRPPRLPRPRPRPTYWPRP    0.235
 6  RRIRVRPPRLPRPRPRPVMWPRP    0.365
 7  RRIRTRPPRLPRPRPRPRAYPRP   -0.339
 8  RRIRARPPRLPRPRPRPTESPRP    0.659
 9  RRIRGRPPRLPRPRPRPLQPPRP    0.991
10  RRIRLRPPRLPRPRPRPACAPRP    0.541
11  RRIRWRPPRLPRPRPRPGYIPRP    0.226
12  RRIRQRPPRLPRPRPRPQCCPRP  -0.0133
13  RRIRSRPPRLPRPRPRPTVHPRP  -0.0989
14  RRIRIRPPRLPRPRPRPSDMPRP   -0.309
15  RRIRSRPPRLPRPRPRPHMWPRP    0.202
16  RRIRERPPRLPRPRPRPCKPPRP   0.0172
17  RRIRGRPPRLPRPRPRPDYEPRP     0.19
18  RRIRLRPPRLPRPRPRPAADPRP    0.832
19  RRIRERPPRLPRPRPRPNTSPRP     0.37
20  RRIRERPPRLPRPRPRPPYEPRP   -0.296
21  RRIRLRPPRLPRPRPRPDQPPRP   -0.129
22  RRIRCRPPRLPRPRPRPTAFPRP   0.0759
23  RRIRARPPRLPRPRPRPTIPPRP    0.132

* * *

shrunken log2 fold change values by entry
# Test system: Escherichia coli TOP10
# experimental-details: shrunken log2 fold change of peptide-encoding DNA abundance (4.5 h post-induction vs induction); higher = less antimicrobial activity (less host growth inhibition)
# recorded-conditions: time post-induction: 4.5 h; library: site-saturation at positions 5, 18, 19, 20
measure: shrunken log2 fold change

> print(dat)
                biosequence    value
 1  RRIRQRPPRLPRPRPRPYTLPRP   0.0232
 2  RRIRRRPPRLPRPRPRPSLHPRP    0.114
 3  RRIRQRPPRLPRPRPRPCWGPRP   0.0281
 4  RRIRYRPPRLPRPRPRPFKEPRP   -0.146
 5  RRIRQRPPRLPRPRPRPVTSPRP  -0.0277
 6  RRIRWRPPRLPRPRPRPVNIPRP   0.0116
 7  RRIRPRPPRLPRPRPRPNSGPRP   0.0788
 8  RRIRVRPPRLPRPRPRPPDSPRP   -0.136
 9  RRIRTRPPRLPRPRPRPGIWPRP  -0.0153
10  RRIRDRPPRLPRPRPRPTITPRP   0.0537
11  RRIRQRPPRLPRPRPRPGDEPRP    0.021
12  RRIRQRPPRLPRPRPRPESCPRP  -0.0209
13  RRIRDRPPRLPRPRPRPSLGPRP    0.487
14  RRIRDRPPRLPRPRPRPHFRPRP   -0.121
15  RRIRPRPPRLPRPRPRPAAEPRP    0.595
16  RRIRLRPPRLPRPRPRPGESPRP   0.0313
17  RRIRIRPPRLPRPRPRPQLWPRP    0.575
18  RRIRGRPPRLPRPRPRPRCRPRP    0.957
19  RRIRKRPPRLPRPRPRPWISPRP   0.0313
20  RRIRPRPPRLPRPRPRPWLVPRP    0.159
21  RRIRTRPPRLPRPRPRPDMFPRP  -0.0274
22  RRIRMRPPRLPRPRPRPEPEPRP     2.64
23  RRIRYRPPRLPRPRPRPVLMPRP    -0.83
24  RRIRQRPPRLPRPRPRPSSGPRP  -0.0384
25  RRIRTRPPRLPRPRPRPHNPPRP   -0.385
26  RRIRCRPPRLPRPRPRPDRNPRP   -0.397
27  RRIRDRPPRLPRPRPRPSDRPRP    0.159

* * *

# Test system: Escherichia coli TOP10
# experimental-details: shrunken log2 fold change of peptide-encoding DNA abundance (4.5 h post-induction vs induction); higher = less antimicrobial activity (less host growth inhibition)
# recorded-conditions: time post-induction: 4.5 h; library: site-saturation at positions 5, 18, 19, 20
measure: shrunken log2 fold change

> print(dat)
                biosequence     value
 1  RRIRVRPPRLPRPRPRPAIEPRP    0.0433
 2  RRIRERPPRLPRPRPRPPWSPRP   -0.0222
 3  RRIRGRPPRLPRPRPRPKMQPRP     0.292
 4  RRIRCRPPRLPRPRPRPHFPPRP   -0.0893
 5  RRIRERPPRLPRPRPRPCGIPRP   0.00383
 6  RRIRGRPPRLPRPRPRPNSGPRP   0.00625
 7  RRIRQRPPRLPRPRPRPMCWPRP  -0.00818
 8  RRIRFRPPRLPRPRPRPFHGPRP   0.00193
 9  RRIRPRPPRLPRPRPRPVCYPRP    -0.309
10  RRIRCRPPRLPRPRPRPFERPRP   -0.0613
11  RRIRDRPPRLPRPRPRPTERPRP     0.463
12  RRIRTRPPRLPRPRPRPVSHPRP    -0.265
13  RRIRNRPPRLPRPRPRPAEHPRP    -0.201
14  RRIRMRPPRLPRPRPRPTFFPRP     0.229
15  RRIRSRPPRLPRPRPRPSWAPRP   -0.0813
16  RRIRNRPPRLPRPRPRPFKYPRP    -0.133
17  RRIRLRPPRLPRPRPRPYEEPRP    -0.274
18  RRIRFRPPRLPRPRPRPIPIPRP    -0.648
19  RRIRDRPPRLPRPRPRPKSKPRP    -0.105
20  RRIRQRPPRLPRPRPRPCEPPRP   -0.0332
21  RRIRARPPRLPRPRPRPECMPRP      1.41

* * *

# Test system: Escherichia coli TOP10
# experimental-details: shrunken log2 fold change of peptide-encoding DNA abundance (4.5 h post-induction vs induction); higher = less antimicrobial activity (less host growth inhibition)
# recorded-conditions: time post-induction: 4.5 h; library: site-saturation at positions 5, 18, 19, 20
Parameter threshold = -0.2. Response is MET when shrunken log2 fold change meets or exceeds it, else NOT MET.

> print(dat)
                biosequence    group
 1  RRIRNRPPRLPRPRPRPKWFPRP      MET
 2  RRIRDRPPRLPRPRPRPIWNPRP      MET
 3  RRIRHRPPRLPRPRPRPVRYPRP  NOT MET
 4  RRIRMRPPRLPRPRPRPYNNPRP  NOT MET
 5  RRIRERPPRLPRPRPRPQRCPRP      MET
 6  RRIRTRPPRLPRPRPRPCYIPRP  NOT MET
 7  RRIRPRPPRLPRPRPRPMAVPRP      MET
 8  RRIRARPPRLPRPRPRPYKQPRP  NOT MET
 9  RRIRHRPPRLPRPRPRPGILPRP      MET
10  RRIRQRPPRLPRPRPRPGCHPRP      MET
11  RRIRRRPPRLPRPRPRPNSPPRP      MET
12  RRIRFRPPRLPRPRPRPMEGPRP      MET
13  RRIRGRPPRLPRPRPRPLVTPRP      MET

* * *

# Tested on: Escherichia coli TOP10;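 also: peptides expressed intracellularly from a pBAD plasmid library in pooled LB shake-flask culture, induced with 0.3% L-arabinose, DNA abundance read by NGS, three biological replicates, DESeq2 with apeglm shrinkage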
# experimental-details: shrunken log2 fold change of peptide-encoding DNA abundance (4.5 h post-induction vs induction); higher = less antimicrobial activity (less host growth inhibition)
# recorded-conditions: time post-induction: 4.5 h; library: site-saturation at positions 5, 18, 19, 20
measure: shrunken log2 fold change

> print(dat)
                biosequence       target.under.test                    measure    value
 1  RRIRWRPPRLPRPRPRPNACPRP  Escherichia coli TOP10  shrunken log2 fold change    0.478
 2  RRIRNRPPRLPRPRPRPMSVPRP  Escherichia coli TOP10  shrunken log2 fold change   0.0774
 3  RRIRCRPPRLPRPRPRPTDDPRP  Escherichia coli TOP10  shrunken log2 fold change     2.22
 4  RRIRHRPPRLPRPRPRPPRWPRP  Escherichia coli TOP10  shrunken log2 fold change    0.137
 5  RRIRGRPPRLPRPRPRPNHEPRP  Escherichia coli TOP10  shrunken log2 fold change   0.0434
 6  RRIRTRPPRLPRPRPRPWIHPRP  Escherichia coli TOP10  shrunken log2 fold change   -0.636
 7  RRIRDRPPRLPRPRPRPESVPRP  Escherichia coli TOP10  shrunken log2 fold change   0.0047
 8  RRIRFRPPRLPRPRPRPYTIPRP  Escherichia coli TOP10  shrunken log2 fold change   0.0439
 9  RRIRRRPPRLPRPRPRPEDDPRP  Escherichia coli TOP10  shrunken log2 fold change     1.11
10  RRIRCRPPRLPRPRPRPHNFPRP  Escherichia coli TOP10  shrunken log2 fold change    -1.01
11  RRIRGRPPRLPRPRPRPDQSPRP  Escherichia coli TOP10  shrunken log2 fold change    0.777
12  RRIRDRPPRLPRPRPRPRSPPRP  Escherichia coli TOP10  shrunken log2 fold change   -0.183
13  RRIRFRPPRLPRPRPRPCFYPRP  Escherichia coli TOP10  shrunken log2 fold change   -0.394
14  RRIRPRPPRLPRPRPRPINGPRP  Escherichia coli TOP10  shrunken log2 fold change   -0.482
15  RRIRGRPPRLPRPRPRPREIPRP  Escherichia coli TOP10  shrunken log2 fold change      1.1
16  RRIRTRPPRLPRPRPRPGNSPRP  Escherichia coli TOP10  shrunken log2 fold change   -0.169
17  RRIRLRPPRLPRPRPRPHGKPRP  Escherichia coli TOP10  shrunken log2 fold change   -0.191
18  RRIRCRPPRLPRPRPRPVKRPRP  Escherichia coli TOP10  shrunken log2 fold change   0.0344
19  RRIRKRPPRLPRPRPRPPWPPRP  Escherichia coli TOP10  shrunken log2 fold change    0.827
20  RRIRARPPRLPRPRPRPREWPRP  Escherichia coli TOP10  shrunken log2 fold change  -0.0253
21  RRIRGRPPRLPRPRPRPFHSPRP  Escherichia coli TOP10  shrunken log2 fold change   -0.155
22  RRIRNRPPRLPRPRPRPLVLPRP  Escherichia coli TOP10  shrunken log2 fold change   -0.171
23  RRIRLRPPRLPRPRPRPKNKPRP  Escherichia coli TOP10  shrunken log2 fold change   -0.291
24  RRIRKRPPRLPRPRPRPGKPPRP  Escherichia coli TOP10  shrunken log2 fold change    0.115
25  RRIRWRPPRLPRPRPRPYGVPRP  Escherichia coli TOP10  shrunken log2 fold change  0.00576
26  RRIRHRPPRLPRPRPRPAIIPRP  Escherichia coli TOP10  shrunken log2 fold change   -0.113
27  RRIRKRPPRLPRPRPRPCEVPRP  Escherichia coli TOP10  shrunken log2 fold change   0.0441
28  RRIRSRPPRLPRPRPRPMYMPRP  Escherichia coli TOP10  shrunken log2 fold change   -0.387
29  RRIRDRPPRLPRPRPRPYNMPRP  Escherichia coli TOP10  shrunken log2 fold change  -0.0758
30  RRIRWRPPRLPRPRPRPSFGPRP  Escherichia coli TOP10  shrunken log2 fold change  -0.0482
31  RRIRIRPPRLPRPRPRPWQNPRP  Escherichia coli TOP10  shrunken log2 fold change  0.00641
32  RRIRFRPPRLPRPRPRPCQDPRP  Escherichia coli TOP10  shrunken log2 fold change   -0.148
33  RRIRTRPPRLPRPRPRPKDRPRP  Escherichia coli TOP10  shrunken log2 fold change   -0.196
34  RRIRFRPPRLPRPRPRPNRSPRP  Escherichia coli TOP10  shrunken log2 fold change   -0.299
35  RRIRDRPPRLPRPRPRPPVAPRP  Escherichia coli TOP10  shrunken log2 fold change    0.304
36  RRIRLRPPRLPRPRPRPYSIPRP  Escherichia coli TOP10  shrunken log2 fold change   0.0705
37  RRIRIRPPRLPRPRPRPKWFPRP  Escherichia coli TOP10  shrunken log2 fold change    -0.69
38  RRIRKRPPRLPRPRPRPKSPPRP  Escherichia coli TOP10  shrunken log2 fold change    0.385
39  RRIRQRPPRLPRPRPRPDSTPRP  Escherichia coli TOP10  shrunken log2 fold change    0.139
40  RRIRGRPPRLPRPRPRPIRWPRP  Escherichia coli TOP10  shrunken log2 fold change    0.577
41  RRIRDRPPRLPRPRPRPRKCPRP  Escherichia coli TOP10  shrunken log2 fold change  -0.0114
42  RRIRERPPRLPRPRPRPPLQPRP  Escherichia coli TOP10  shrunken log2 fold change   -0.176
43  RRIRDRPPRLPRPRPRPNTAPRP  Escherichia coli TOP10  shrunken log2 fold change  -0.0636
44  RRIRMRPPRLPRPRPRPEHGPRP  Escherichia coli TOP10  shrunken log2 fold change    0.406
45  RRIRQRPPRLPRPRPRPFYFPRP  Escherichia coli TOP10  shrunken log2 fold change   -0.697
46  RRIRVRPPRLPRPRPRPPATPRP  Escherichia coli TOP10  shrunken log2 fold change     0.18
47  RRIRLRPPRLPRPRPRPTHIPRP  Escherichia coli TOP10  shrunken log2 fold change   -0.148
